Listed here are molecules together with their documented z-score.
- assay_overview: fission yeast growth modulation, primary screen, strain 972, OD600, 24 h, no modulator (AID 1090);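 further: basal condition with compound alone and no growth modifier present; test concentration not given here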
- condition_info: S. pombe 972 growth, higher = more signal, called active from +8 up or from −8 down
Calls of active or inactive are those of the source.

# molecule, z-score
records = [
    ("CN(C)C(=O)C1N=C(c2ccc(OCCCO)cc2)N(c2ccccc2)O1 (stereo unspecified)", "-1.17 (inactive)"),
    ("COC(=O)[C@@]1(Cc2ccccc2)[C@@H]2C(=CC(=O)[C@H]2CC(=O)C(=O)N(C)C)CN1C(=O)c1ccccc1", "0.378 (inactive)"),
    ("CC(C)Cc1ccc(CN2CC[C@@H](NC(=O)Nc3ccccc3)C2)cc1", "-21.2 (active)"),
    ("CC(C)[Si](C#CCCCC#N)(O[C@H](c1ccccc1)c1cn([C@H](CO)Cc2ccccc2)nn1)C(C)C", "-11.3 (active)"),
    ("CC(C)C[C@@H]1NC(=O)[C@@H]2C[C@H](C(=O)NCCCCCN)[C@H](c3ccc(O)cc3)N2C1=O", "0.32 (inactive)"),
    ("O=C1O[C@@H](c2ccccc2)[C@@H](c2ccccc2)N2[C@@H](c3ccc(O)cc3)[C@]3(C(=O)Nc4ccc(C#CC5=CCCCC5)cc43)[C@@H](C(=O)NC[C@H](O)c3ccccc3)[C@H]12", "0.18 (inactive)"),
    ("COc1cc2c(cc1O)C(C)N(Cc1ccc([N+](=O)[O-])o1)CC2 (stereo unspecified)", "-3.24 (inactive)"),
    ("C=C(C)[C@@H]1CC=C(C(O)C2C=CC3C(=O)N(c4ccccc4)C(=O)C3N2Nc2ccccc2F)CC1 (stereo partly specified)", "1.09 (inactive)"),
    ("NC(N)=NCCCn1cc(CNC(=O)[C@@H](N)Cc2ccccc2)nn1", "-0.627 (inactive)"),
    ("N#Cc1ccc(NN2C(C(O)c3ccc(F)cc3)C=CC3C(=O)N(c4ccccc4)C(=O)C32)cc1 (stereo unspecified)", "2.45 (inactive)"),
    ("O[C@@H](Cc1ccccc1)[C@@H](/C=C/C1CC1)N(CC#Cc1ccccc1)Cc1cccc(Cl)c1", "0.322 (inactive)"),
    ("CCCCO[C@H]1C[C@H]2C(I)=C[C@@H]1C(=O)[C@]21CO1", "-4.81 (inactive)"),
    ("CCOc1cc(C(O)C2C=CC3C(=O)N(C)C(=O)C3N2Nc2ccccc2)ccc1O (stereo unspecified)", "1.23 (inactive)"),
    ("COCCOC(=O)N1C(=O)[C@@]2(c3cc(C#CCC(C(=O)OC)C(=O)OC)ccc31)[C@H](C(=O)N1CCc3cc(OC)c(OC)cc3C1)[C@H]1C(=O)O[C@H](c3ccccc3)[C@H](c3ccccc3)N1[C@@H]2c1ccc(OCCO)cc1", "0.667 (inactive)"),
    ("CCOC(=O)[C@H]1[C@@H]2C(=O)N3CCC[C@H]3[C@H](O[Si](C(C)C)(C(C)C)C(C)C)[C@H]2C=C2CCN(S(=O)(=O)c3ccc(C)cc3)C[C@H]21", "-0.772 (inactive)"),
    ("COc1ccc(CN(C2=CC[C@@]3(C(N)=O)C(=O)C(Cl)=C(Cl)C(=O)[C@@]3(C#N)C2)S(=O)(=O)c2ccc(Br)cc2)cc1", "-2.63 (inactive)"),
]
